This section presents compounds with their documented viability at 30 µM values.
system: MCF-7; test: Cytotoxicity on panel of cell lines, TMRE viability (Example II.2); assay type: cell-based; conditions: Homo sapiens, MCF7, 24 hours, mean, control = 1, read-out: cell viability relative to control, MCF-7 (breast cancer)
Report the figure in % without appending any unit label.

Reference set (3 entries):
Fc1ccc(-c2ncn(Cc3ccccc3)c2-c2ccnc3[nH]ccc23)cc1Cl [Preparative Example 140] :: 43
Fc1ccc(-c2ncn(C3CCCCC3)c2-c2ccnc3[nH]ccc23)cc1F [Preparative Example 173] :: 52
Fc1ccc(-c2ncn(C3CCCCC3)c2-c2ccnc3[nH]ccc23)cc1 [Preparative Example 3] :: 53

Enter reported viability at 30 µM observed with MCF-7 for Cn1cnc(Cn2cnc(-c3ccc(F)cc3)c2-c2ccnc3[nH]ccc23)n1 [Preparative Example 106]
65

Enter reported viability at 30 µM observed with MCF-7 for Fc1ccc(-c2ncn(Cc3ccco3)c2-c2ccnc3[nH]ccc23)cc1 [Preparative Example 81]
68

Enter reported viability at 30 µM observed with MCF-7 for Fc1ccc(-c2nc(I)n(C3CCCCC3)c2-c2ccnc3[nH]ccc23)cc1 [Preparative Example 95]
1

* * *

test system: OVCAR4; test: Cytotoxicity on panel of cell lines, TMRE viability (Example II.2); assay type: cell-based; conditions: Homo sapiens, OVCAR-4, 24 hours, mean, control = 1, read-out: cell viability relative to control, OVCAR4 (ovarian cancer)
Measure: viability at 30 µM (%)
Report the figure in % without appending any unit label.

Enter reported viability at 30 µM observed with OVCAR4 for Fc1ccc(-c2ncn(C3CCCCC3)c2-c2ccnc3[nH]ccc23)cc1 [Preparative Example 3]
73

Enter reported viability at 30 µM observed with OVCAR4 for Cc1nc(-c2ccc(F)cc2)c(-c2ccnc3[nH]ccc23)n1C1CCCCC1 [Preparative Example 61]
77

Enter reported viability at 30 µM observed with OVCAR4 for Fc1ccc(-c2ncn(Cc3ccccc3)c2-c2ccnc3[nH]ccc23)cc1Cl [Preparative Example 140]
87

Enter reported viability at 30 µM observed with OVCAR4 for Fc1ccc(-c2ncn(CC3CCCO3)c2-c2ccnc3[nH]ccc23)cc1 (stereo not shown) [Preparative Example 27]
84

* * *

system: primary CLL cells; experiment: Cytotoxicity, TMRE flow cytometry viability, primary CLL cells (Example II.1); format: cell-based; details: Homo sapiens, CLL cell, 6 hours, TMRE positive cells normalized to control, ratio to PF670462, <1 = higher cytotoxicity than PF670462, read-out: Viability of cells, Compound of formula I (100 μM), relative to PF670462 (100 μM), CLL primary cells
Measure: viability at 100 µM (%)
Report the figure in % without appending any unit label.

Reference set (2 entries):
Fc1ccc(-c2ncn(C3CCCCCC3)c2-c2ccnc3[nH]ccc23)cc1 [Preparative Example 19] :: 22
Cn1ccc(Cn2cnc(-c3ccc(F)c(Cl)c3)c2-c2ccnc3[nH]ccc23)n1 [Preparative Example 143] :: 66

Pending compound:
Enter reported viability at 100 µM observed with primary CLL cells for Clc1ccc(-c2ncn(C3CCCCC3)c2-c2ccnc3[nH]ccc23)cc1 [Preparative Example 9]
50

* * *

This section presents compounds with their documented viability at 100 µM values.
system: primary CLL cells; assay: Cytotoxicity, TMRE flow cytometry viability, primary CLL cells (Example II.1); format: cell-based; conditions: Homo sapiens, CLL cell, 6 hours, TMRE positive cells normalized to control, ratio to PF670462, <1 = higher cytotoxicity than PF670462, read-out: Viability of cells, Compound of formula I (100 μM), relative to PF670462 (100 μM), CLL primary cells
Report the figure in % without appending any unit label.

Reference set (3 entries):
Fc1ccc(-c2ncn(CC3CNCCO3)c2-c2ccnc3[nH]ccc23)cc1 (stereo not shown) :: 78
CN(C)Cc1nc(-c2ccc(F)cc2)c(-c2ccnc3[nH]ccc23)n1C1CCCCC1 :: 12
CN(C)[C@H]1CC[C@H](n2cnc(-c3ccc(F)cc3)c2-c2ccnc3[nH]ccc23)CC1 :: 28

# input compound: CC(=O)N[C@H]1CC[C@H](n2cnc(-c3ccc(F)cc3)c2-c2ccnc3[nH]ccc23)CC1 ; wanted: its viability at 100 µM
87

# input compound: OCc1cc2c(-c3c(-c4ccc(F)cc4)ncn3C3CCCCC3)ccnc2[nH]1 ; wanted: its viability at 100 µM
67

# input compound: CS(=O)(=O)N[C@H]1CC[C@H](n2cnc(-c3ccc(F)cc3)c2-c2ccnc3[nH]ccc23)CC1 ; wanted: its viability at 100 µM
86

# input compound: Fc1ccc(-c2ncn(Cc3ccccc3)c2-c2ccnc3[nH]ccc23)cc1F ; wanted: its viability at 100 µM
1

* * *

test system: MCF-7; experiment: Cytotoxicity on panel of cell lines, TMRE viability (Example II.2); assay type: cell-based; details: Homo sapiens, MCF7, 24 hours, mean, control = 1, read-out: cell viability relative to control, MCF-7 (breast cancer)
Measure: viability at 30 µM (%)
Report the figure in % without appending any unit label.

Reference set (5 entries):
Cc1nc(-c2ccc(F)cc2)c(-c2ccnc3[nH]ccc23)n1C1CCCCC1 :: 39
C=CS(=O)(=O)N[C@H]1CC[C@@H](n2cnc(-c3ccc(F)cc3)c2-c2ccnc3[nH]ccc23)CC1 :: 28
Fc1ccc(-c2ncn(C3CCCCC3)c2-c2ccnc3[nH]cc(F)c23)cc1 :: 65
Fc1ccc(-c2ncn(Cc3ccoc3)c2-c2ccnc3[nH]ccc23)cc1 :: 31
Nc1nccc(-c2c(-c3ccc(F)cc3)ncn2C2CCCCC2)n1 [PF670462, reference compound] :: 55

# input compound: CS(=O)(=O)N[C@H]1CC[C@@H](n2cnc(-c3ccc(F)cc3)c2-c2ccnc3[nH]ccc23)CC1 ; wanted: its viability at 30 µM
72

# input compound: Fc1ccc(-c2ncn(C3CCCCC3)c2-c2c(F)cnc3[nH]ccc23)cc1 ; wanted: its viability at 30 µM
41

* * *

System: K562
Assay: Cytotoxicity on panel of cell lines, TMRE viability (Example II.2)
Format: cell-based
Conditions: Homo sapiens, 24 hours, mean, control = 1, read-out: cell viability relative to control, K562 (CML)
Procedure: […] The tested cell lines were incubated with inhibitors at 30 μM concentration or corresponding amount of solvent (DMSO, Sigma Aldrich) in standard culture conditions, seeded as 10^5 cells/500 μl per well in a 24-well plate. […] Viability of cells was assessed after 24 hours. […]
This section presents molecules with their documented viability at 30 µM values.
Report the figure in % without appending any unit label.

Nc1nccc(-c2c(-c3ccc(F)cc3)ncn2C2CCCCC2)n1 [PF670462, reference compound] :: 97

Pending molecule:
# input molecule: Cc1nc(-c2ccc(F)cc2)c(-c2ccnc3[nH]ccc23)n1C1CCCCC1 [Preparative Example 61] ; wanted: its viability at 30 µM
80

* * *

assay: Specificity of cytotoxic activity, TMRE viability, primary nonmalignant control cells (Example II.4); assay type: cell-based; conditions: human, N = 4, read-out: Viability - mean % of control, Primary healthy cells
This section presents compounds with their documented viability at 6 h, 30 µM values.
Write your answer as a measured quantity: the number, then the unit.

# input compound: Nc1nccc(-c2c(-c3ccc(F)cc3)ncn2C2CCCCC2)n1 [PF670462, reference compound] ; wanted: its viability at 6 h, 30 µM
95.5%

# input compound: Fc1ccc(-c2ncn(C3CCCCC3)c2-c2ccnc3[nH]ccc23)cc1 [Preparative Example 3] ; wanted: its viability at 6 h, 30 µM
80.9%

* * *

This section presents molecules with their documented concentration at 60 min values.
test: Pharmacokinetic study, oral dosing, plasma concentration by LC-MS/MS (Example II.5); type: in vivo; details: mouse, male Balb/c mice, oral 20 mg/kg as dihydrochloride in saline, free base quantified, below LLOQ designated zero, read-out: conc. at 60 min
Report the figure in nM without appending any unit label.

Cn1ccnc1Cn1cnc(-c2ccc(F)cc2)c1-c1ccnc2[nH]ccc12 [Preparative Example 122] :: 300
Fc1ccc(-c2ncn(Cc3cccnc3)c2-c2ccnc3[nH]ccc23)cc1 [Preparative Example 82] :: 90
CN1CCC(F)(Cn2cnc(-c3ccc(F)cc3)c2-c2ccnc3[nH]ccc23)CC1 [Preparative Example 126] :: 840
Fc1ccc(-c2ncn(Cc3nc[nH]n3)c2-c2ccnc3[nH]ccc23)cc1 [Preparative Example 154] :: 7860

Pending molecule:
# input molecule: CN1CCC(Cn2cnc(-c3ccc(F)cc3)c2-c2ccnc3[nH]ccc23)CC1 [Preparative Example 102] ; wanted: its concentration at 60 min
400

* * *

test system: primary CLL cells; test: Cytotoxicity, TMRE flow cytometry viability, primary CLL cells (Example II.1); type: cell-based; settings: Homo sapiens, CLL cell, 6 hours, TMRE positive cells normalized to control, ratio to PF670462, <1 = higher cytotoxicity than PF670462, read-out: Viability of cells, Compound of formula I (100 μM), relative to PF670462 (100 μM), CLL primary cells
This section presents molecules with their documented viability at 100 µM values.
Report the figure in % without appending any unit label.

O[C@H]1CCC[C@H](n2cnc(-c3ccc(F)cc3)c2-c2ccnc3[nH]ccc23)C1 [Preparative Example 158] :: 76

# input molecule: Nc1nccc(-c2c(-c3ccc(F)cc3)ncn2C2CCCCC2)n1 [PF670462, reference compound] ; wanted: its viability at 100 µM
100

# input molecule: Fc1ccc(-c2ncn(C3CCNCC3)c2-c2ccnc3[nH]ccc23)cc1 [Preparative Example 37] ; wanted: its viability at 100 µM
51

# input molecule: Fc1ccc(-c2ncn(Cc3ccccc3)c2-c2ccnc3[nH]ccc23)cc1Cl [Preparative Example 140] ; wanted: its viability at 100 µM
1

# input molecule: Fc1ccc(-c2ncn(C3CCCCC3)c2-c2ccnc3[nH]ccc23)cc1F [Preparative Example 173] ; wanted: its viability at 100 µM
2

# input molecule: Fc1ccc(-c2ncn(C3CCOC3)c2-c2ccnc3[nH]ccc23)cc1 (stereo not shown) [Preparative Example 16] ; wanted: its viability at 100 µM
67

# input molecule: CS(=O)(=O)N[C@H]1CC[C@@H](n2cnc(-c3ccc(F)cc3)c2-c2ccnc3[nH]ccc23)CC1 [Preparative Example 74] ; wanted: its viability at 100 µM
73
